Listed below: CD8 EC50 (nM); CD69/CD25 on human T cells, plate-coated antibody values for each entry.
Molecular target: human CD3 (human, UniProt P07766 23-207; P04234 22-171; P09693 23-182)
Sequence (P07766 23-207, chain 1 of 3): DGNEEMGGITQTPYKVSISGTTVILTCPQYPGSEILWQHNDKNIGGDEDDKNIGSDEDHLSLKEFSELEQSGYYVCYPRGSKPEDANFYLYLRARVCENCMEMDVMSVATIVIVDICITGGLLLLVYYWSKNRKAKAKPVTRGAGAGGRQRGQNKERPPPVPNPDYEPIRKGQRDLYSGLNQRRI
Sequence (P04234 22-171, chain 2 of 3): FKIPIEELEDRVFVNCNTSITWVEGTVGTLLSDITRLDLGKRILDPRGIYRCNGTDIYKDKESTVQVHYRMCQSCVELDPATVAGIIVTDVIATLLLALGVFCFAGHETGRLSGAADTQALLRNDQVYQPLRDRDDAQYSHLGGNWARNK
Sequence (P09693 23-182, chain 3 of 3): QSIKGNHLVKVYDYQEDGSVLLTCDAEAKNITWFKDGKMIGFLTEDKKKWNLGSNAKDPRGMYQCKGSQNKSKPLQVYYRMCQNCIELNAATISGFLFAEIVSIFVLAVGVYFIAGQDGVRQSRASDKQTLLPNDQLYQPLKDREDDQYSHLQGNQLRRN
Experiment: cell-based or functional assay
The answer is to be given in nM; state only the numeric part.

Here is how some binders turned out for CD8 EC50 (nM); CD69/CD25 on human T cells, plate-coated antibody.
INSERT INTO assay_data (binder, value_measured) VALUES
  ('mAb 47 (antibody, V domains shown) V domain 1: QAQLVQSGSELKKPGASVKVSCKASGYTFTKHSMNWVRQAPGQGLEWMGWINTNTGNPTYAQGFTGRFVFSLDTSVTTAYLQISSLKAEDTAVYYCAREGDYDFWSGFFNFDYWGQGTLVTVSS V domain 2: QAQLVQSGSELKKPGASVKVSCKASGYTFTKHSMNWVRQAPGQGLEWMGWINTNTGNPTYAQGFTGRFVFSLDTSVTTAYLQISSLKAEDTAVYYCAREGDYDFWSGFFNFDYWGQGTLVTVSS', 23.8),
  ('mAb 178 (antibody, V domains shown) VH: EVQLVESGGGLVQPGRSLRLSCAASGFTFDDYTMHWVRQAPGKGLEWVSDISWNSGTIGYADSVKGRFTISRDNAKNSLYLQMNSLRAEDTALYYCVKDSSGYGHYYKYYMDVWGKGTTVTVSS VL: DIQMTQSPSSLSASVGDRVTITCRASQSISNYLNWYQQKAGKVPKVLIYGSSSLQSGVPSRFSGSGSGTDFTLTISSLQPEDFASYYCQQTYSSPLTFGGGTKVDFK', 12.6),
  ('mAb 159 (antibody, V domains shown) VH: EVQLVESGGGLVQPGRSLRLSCAASGFTFNGYTMHWVRQVPGKGLEWVSGISWNSGSVGYADSVKGRFTISRDNAKNSLFLQMNSLRAEDTALYYCAKDSSGYGHYYYYYMDVWGKGTTVTVSS VL: EIVMTQSPATLSVSPGERATLSCRASQSVRNNLAWYQQKPGQAPRLLIYGASTRATGIPARFSGSGSGTEFTLTISSLQSEDFALYYCQLYNNWPHFGQGTRLEIK', 11.9),
  ('mAb 106 (antibody, V domains shown) VH: QVQLVESGGGVVQPGRSLRLSCAASGFTFRSYGMHWVRQAPGKGLEWVAIIWYNGNKKDYVDSVKGRFTISRDNSKNTLYLQMNSLRAEDTALYYCARGPGYNWFDPWGQGTLVTVSS VL: DIQMTQSPPSLSASVGDRVTITCRASQRISSYLNWYQQKPGKAPKLLIYAASSLQSGVPSRFSGSGSGTDFTLTISSLQPEDFATYYCQQSDSFPLTFGGGTKVEII', 12.9);

Please give the measured CD8 EC50 (nM); CD69/CD25 on human T cells, plate-coated antibody for this binder: mAb 123 (antibody, V domains shown) VH: DVQLVESGGGTVKTGGSLRLSCVASGFSFKKAWMNWVRQAPGKGLEWVGRIKKNSDDGTADYAAPVKGRFTISRDDSKRTLFLQMNSLQTEDTAVYYCTTLDSSSWFVGYYYMDVWGKGTTVTVSS VL: DIQMTQSPSSVSASVGDRVIITCRASQDINNWLAWYQQKPGKAPKLLIYTASSLQSGVPSRFSGSGSVSDFTLTIDSLQPEDFATYYCQQAHSLPITFGQGTRLEIK
11.6

All values here come from patent US20230295310A1.
